Listed compounds paired with reported melting point

In the examples that follow, each entry is paired with its recorded melting point.
{"compound": "CCN(CC)CCNC(=O)c1ccccc1NC(=O)COc1ccc(Cl)cc1", "melting point": "109 °C"}
{"compound": "CCCCc1cnc(-c2ccc(N=C=O)cc2)nc1", "melting point": "48 °C"}
{"compound": "CCCc1c(O)cccc1Oc1ccccc1C(=O)OC", "melting point": "80 °C"}
{"compound": "CC(=O)N1CCC(c2nn(-c3ccc(C(F)(F)F)cc3)c3ccccc23)CC1", "melting point": "148 to 150 °C"}
{"compound": "CCn1nnn(-c2cc(O)c(Cl)cc2Cl)c1=O", "melting point": "149 to 150 °C"}
{"compound": "O=C1NN(c2ccccc2)CC1CN1CCOCC1 (stereo not given)", "melting point": "143 to 144 °C"}

Form: compound = COC(=O)NS(=O)(=O)Oc1c(C(C)C)cccc1C(C)C ; melting point = 92 to 95 °C

Form: compound = CCCCCCCNC(=O)N(C)c1cccc(-c2ccc(C=CC(=O)O)c(F)c2)c1 ; melting point = 148 to 149 °C

Form: compound = Cc1c(-c2ccccc2)c(N2CC[C@H](N(C)C)C2)c2oc(/C=C/c3ccccc3)nc2c1C#N ; melting point = 165 to 166 °C

Form: compound = O=C(c1ccccc1F)N1C(=O)c2ccccc2S1(=O)=O ; melting point = 148 to 151 °C

Form: compound = CN(C(=O)CCCOc1ccc2c(c1)CN1CC(=O)NC1=N2)C1CCCCC1 ; melting point = 243 to 244 °C

Form: compound = CN(C(=O)OC(C)(C)C)c1cc(Oc2ccccc2N2CCCCC2)ccc1N ; melting point = 108 to 110 °C

Form: compound = CCOC(=O)C1=C(C)NC(C)=C(C(=O)OC(C)C)C1c1csc2ccncc12 (stereo not given) ; melting point = 212 to 215 °C

Form: compound = Cn1cc(C(=O)c2ccc(Cl)cc2)cc1C(=O)CCl ; melting point = 130 to 132 °C

Form: compound = CCCC[C@H](NC(=O)[C@H](C)NC(=O)OCc1ccccc1)C(=O)CSCc1ccco1 ; melting point = 85 to 87 °C

---

reported_endpoint: melting point

In the examples that follow, each entry is paired with its recorded melting point.
{"compound": "CSc1nc2ncccc2c2nnc(SCc3ccccc3)n12", "reported_endpoint": "melting point", "recorded_result": "157 to 158 °C"}
{"compound": "CC(Cc1c[nH]c2ccccc12)(NC(=O)OC1C2CC3CC(C2)CC1C3)C(=O)NC(CNC(=O)CCC(=O)O)Cc1ccccc1 (centres undefined)", "reported_endpoint": "melting point", "recorded_result": "110 to 114 °C"}
{"compound": "CCC(CC)C(=O)OC1CC(C)C=C2C=CC(C)C(CCC3CC(O)CC(=O)O3)C21 (centres undefined)", "reported_endpoint": "melting point", "recorded_result": "120 to 122 °C"}
{"compound": "OCCCCOc1ccc2cc(Nc3ccc(O)cc3)ccc2c1", "reported_endpoint": "melting point", "recorded_result": "132 to 135 °C"}
{"compound": "C=CCC(=CC(N)C(=O)O)CP(=O)(O)O (centres undefined)", "reported_endpoint": "melting point", "recorded_result": "154 to 157 °C"}
{"compound": "O=Cc1ccc(OC(=O)c2ccccc2)c([N+](=O)[O-])c1", "reported_endpoint": "melting point", "recorded_result": "110 to 112 °C"}
{"compound": "Fc1ccc(-c2cnn3cnnc3n2)cc1", "reported_endpoint": "melting point", "recorded_result": "> 300 °C"}
{"compound": "CS(=O)(=O)c1ccc(C(CC2CCCC2)C(=O)Nc2ccc(C(=O)O)cn2)cc1 (centres undefined)", "reported_endpoint": "melting point", "recorded_result": "191 to 193 °C"}

Below: the item to evaluate.
Form: compound = N#CCOc1cccc(CN2C(=O)c3cccc(NC(=O)c4ccc(Cl)s4)c3C2=O)c1 ; melting point = 164 °C

From: a melting point compilation (Tetko et al.; mined from patent text by program, amines drawn as free bases though some values may be those of a salt)
